# TARGET ENTITY: T1, cyno CD46 expressed on 293 cells (cynomolgus)
# T1 construct: whole, on cells; The construct on the cells is not described; also called HEK 293 cells expressing cyno CD46
# EXPERIMENT NOTES: FACS, 293 cells expressing cyno CD46, pH 7.4
RECORDED ENDPOINT: EC50 (µg/mL)
Give the value, in units of µg/mL, as a plain number.

BINDER: BAP133-2-02-12 (antibody, V domains shown, also called BAP133-02-02-12; CPE hit BAP133-2-02-12) VH: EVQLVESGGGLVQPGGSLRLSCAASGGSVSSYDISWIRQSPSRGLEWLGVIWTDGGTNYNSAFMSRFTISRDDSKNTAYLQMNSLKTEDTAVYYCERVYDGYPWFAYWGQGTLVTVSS VL: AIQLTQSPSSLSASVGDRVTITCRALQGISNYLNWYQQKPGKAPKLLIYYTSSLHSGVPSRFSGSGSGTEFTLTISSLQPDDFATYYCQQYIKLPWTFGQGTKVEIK
EC50 [µg/mL]: 2.92
--
BINDER: Benchmark (BM) BA-133-00-01 (antibody, V domains shown, the killing assays used the ADC form; Conjugation site and payload are not described; also called BM (bench mark)) VH: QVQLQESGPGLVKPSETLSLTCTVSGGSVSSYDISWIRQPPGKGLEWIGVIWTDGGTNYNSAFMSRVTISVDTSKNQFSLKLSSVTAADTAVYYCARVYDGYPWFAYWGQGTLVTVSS VL: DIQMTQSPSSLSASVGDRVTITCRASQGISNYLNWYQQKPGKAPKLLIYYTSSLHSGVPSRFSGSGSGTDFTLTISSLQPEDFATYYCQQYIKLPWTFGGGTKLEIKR
EC50 [µg/mL]: 0.0493

Please give the measured EC50 for this binder: BA-133-04-04 (antibody, V domains shown, the killing assays used the ADC form; also called CPE hit BA133-04-04) VH: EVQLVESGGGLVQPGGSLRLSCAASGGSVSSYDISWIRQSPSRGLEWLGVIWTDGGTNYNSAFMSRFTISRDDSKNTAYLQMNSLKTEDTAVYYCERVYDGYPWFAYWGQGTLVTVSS VL: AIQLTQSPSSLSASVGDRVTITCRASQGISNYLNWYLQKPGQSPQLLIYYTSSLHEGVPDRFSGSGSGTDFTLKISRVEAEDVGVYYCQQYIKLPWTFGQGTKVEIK 0.944
